ASSAY DETAILS: Pharmacokinetics in rats, plasma and brain by LC-MS/MS
Assay type: in vivo, Sprague Dawley rats
COND: male, Sprague Dawley, in vivo; plasma, single oral 50 mg/kg in sesame oil, rat
MEASUREMENT TYPE: Tmax (h)
Write it as a number; the unit h goes unstated.

Exercise: Field request: Tmax | item: CCCCCC1=C(NCC)C(=O)C(CC=C(C)CCC=C(C)C)=C(O)C1=O
Key: 8

---

MEASUREMENT TARGET: CYP1A (Homo sapiens)
Sequence (P05177 2-516 limits assumed): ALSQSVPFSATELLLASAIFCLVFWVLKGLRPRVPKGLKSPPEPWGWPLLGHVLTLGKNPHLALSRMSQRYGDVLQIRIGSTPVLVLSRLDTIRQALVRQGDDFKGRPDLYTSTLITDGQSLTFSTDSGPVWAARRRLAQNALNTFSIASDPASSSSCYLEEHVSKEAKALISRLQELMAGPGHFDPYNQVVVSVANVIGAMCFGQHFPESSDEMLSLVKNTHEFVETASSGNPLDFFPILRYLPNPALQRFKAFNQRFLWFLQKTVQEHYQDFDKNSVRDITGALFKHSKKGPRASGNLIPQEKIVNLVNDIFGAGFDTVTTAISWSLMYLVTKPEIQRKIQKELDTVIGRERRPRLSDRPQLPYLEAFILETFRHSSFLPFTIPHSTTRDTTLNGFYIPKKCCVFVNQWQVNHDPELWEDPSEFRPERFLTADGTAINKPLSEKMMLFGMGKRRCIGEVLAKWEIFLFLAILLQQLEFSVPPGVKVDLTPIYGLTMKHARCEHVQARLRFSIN
MEASUREMENT TYPE: IC50

Exercise: Field request: IC50 | item: CCCCCC1=C(NCC)C(=O)C(CC=C(C)CCC=C(C)C)=C(O)C1=O
Key: > 25 µM

---

MEASUREMENT TARGET: CYP2C19 (Homo sapiens, UniProt P33261)
Sequence (P33261 whole entry): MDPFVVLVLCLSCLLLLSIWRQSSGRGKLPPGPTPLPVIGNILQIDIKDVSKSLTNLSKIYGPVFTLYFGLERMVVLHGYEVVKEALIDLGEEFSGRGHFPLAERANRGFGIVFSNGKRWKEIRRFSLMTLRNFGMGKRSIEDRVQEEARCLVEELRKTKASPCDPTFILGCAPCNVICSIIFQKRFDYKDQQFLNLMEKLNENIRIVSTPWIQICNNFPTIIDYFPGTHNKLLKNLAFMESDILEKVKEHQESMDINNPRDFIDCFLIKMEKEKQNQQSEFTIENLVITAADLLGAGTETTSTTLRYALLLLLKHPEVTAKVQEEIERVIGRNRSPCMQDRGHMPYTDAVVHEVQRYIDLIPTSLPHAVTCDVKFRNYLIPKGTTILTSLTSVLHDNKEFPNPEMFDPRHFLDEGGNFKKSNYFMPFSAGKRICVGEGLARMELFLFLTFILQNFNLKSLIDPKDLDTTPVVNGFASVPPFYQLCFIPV
MEASUREMENT TYPE: IC50

Exercise: Field request: IC50 | item: CCCCCC1=C(NCC)C(=O)C(CC=C(C)CCC=C(C)C)=C(O)C1=O
Key: > 25 µM

---

MEASUREMENT TARGET: UniProtKB P10632
Sequence (P10632 whole entry): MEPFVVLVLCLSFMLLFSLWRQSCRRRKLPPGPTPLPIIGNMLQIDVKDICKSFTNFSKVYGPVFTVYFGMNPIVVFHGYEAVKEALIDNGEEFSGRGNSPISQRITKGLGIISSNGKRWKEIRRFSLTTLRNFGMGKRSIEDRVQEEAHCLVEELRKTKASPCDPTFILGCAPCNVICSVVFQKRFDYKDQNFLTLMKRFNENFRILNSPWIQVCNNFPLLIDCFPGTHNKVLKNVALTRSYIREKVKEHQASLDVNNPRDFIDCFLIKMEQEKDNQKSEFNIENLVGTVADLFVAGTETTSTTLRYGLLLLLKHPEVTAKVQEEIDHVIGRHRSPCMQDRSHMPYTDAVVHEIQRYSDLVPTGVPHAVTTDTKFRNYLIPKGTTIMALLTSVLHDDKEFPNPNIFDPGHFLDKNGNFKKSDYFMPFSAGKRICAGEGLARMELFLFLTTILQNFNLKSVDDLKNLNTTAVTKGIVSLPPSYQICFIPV
MEASUREMENT TYPE: pIC50
Hey, just a heads up that pIC50 is the negative log base 10 of the concentration in molar.

Exercise: Field request: pIC50 | item: CCCCCC1=C(NCC)C(=O)C(CC=C(C)CCC=C(C)C)=C(O)C1=O [VCE-003.2]
Key: 4.89

---

Reported half-life values for a set of compounds
ASSAY DETAILS: Microsomal metabolic stability
COND: human, microsomes, pH 7.4
Write it as a number; the unit min goes unstated.

Please review the following examples before continuing.
[
  {
    "MOLECULE": "COc1ccc2c(c1)[C@]13CCCC[C@@H]1[C@H](C2)N(C)CC3",
    "half-life, min": 58.1
  },
  {
    "MOLECULE": "CCCCCc1cc(O)c(C/C=C(\\C)CCC=C(C)C)c(O)c1",
    "half-life, min": 13.4
  }
]

Exercise: Field request: half-life | item: CCCCCC1=C(NCC)C(=O)C(CC=C(C)CCC=C(C)C)=C(O)C1=O
Key: 10.6

---

ASSAY DETAILS: Pharmacokinetics in rats, plasma and brain by LC-MS/MS
Assay type: in vivo, Sprague Dawley rats
COND: male, Sprague Dawley, rat, in vivo, oral 50 mg/kg vs i.v. 10 mg/kg, dose-corrected AUCt ratio, read-out: Bioavailability
MEASUREMENT TYPE: bioavailability
Answer format: number, then unit.

Exercise: Field request: bioavailability | item: CCCCCC1=C(NCC)C(=O)C(CC=C(C)CCC=C(C)C)=C(O)C1=O [VCE-003.2]
Key: 13.8%

---

MEASUREMENT TARGET: UniProt P11712
Sequence (P11712 whole entry): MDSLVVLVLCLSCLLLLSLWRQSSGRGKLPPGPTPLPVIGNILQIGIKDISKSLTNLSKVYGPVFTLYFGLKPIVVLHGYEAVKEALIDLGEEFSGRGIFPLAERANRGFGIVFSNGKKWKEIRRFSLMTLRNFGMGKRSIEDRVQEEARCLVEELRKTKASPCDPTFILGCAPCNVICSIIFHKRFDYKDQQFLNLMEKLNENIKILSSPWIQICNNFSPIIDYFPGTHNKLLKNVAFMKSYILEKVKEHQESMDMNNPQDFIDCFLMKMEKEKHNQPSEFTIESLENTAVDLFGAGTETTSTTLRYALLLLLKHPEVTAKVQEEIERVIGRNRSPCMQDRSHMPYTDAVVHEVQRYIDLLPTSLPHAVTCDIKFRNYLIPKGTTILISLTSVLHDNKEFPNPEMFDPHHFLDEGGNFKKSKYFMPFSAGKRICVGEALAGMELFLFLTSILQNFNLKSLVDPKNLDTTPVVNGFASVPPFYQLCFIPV
MEASUREMENT TYPE: pIC50
Hey, just a heads up that pIC50 is the negative log base 10 of the concentration in molar.

Exercise: Field request: pIC50 | item: CCCCCC1=C(NCC)C(=O)C(CC=C(C)CCC=C(C)C)=C(O)C1=O
Key: 4.80

---

ASSAY DETAILS: Pharmacokinetics in rats, plasma and brain by LC-MS/MS
Type: in vivo, Sprague Dawley rats
COND: male, Sprague Dawley, in vivo; plasma, single oral 50 mg/kg in sesame oil, rat
MEASUREMENT TYPE: Cmax (ng/mL)
Write it as a number; the unit ng/mL goes unstated.

Exercise: Field request: Cmax | item: CCCCCC1=C(NCC)C(=O)C(CC=C(C)CCC=C(C)C)=C(O)C1=O [VCE-003.2]
Key: 20300
